molecular target: T1, human CLDN18.2 (human); test: flow cytometry on HEK293-CLDN18.2 cells; unit taken from the concentration axis
T1 construct: also called hCLDN18.2; Claudin-18 splice variant 2
observable: EC50 (µg/mL)
Answers are plain numbers, in µg/mL.

binder	EC50 / µg/mL
18B10-HcLa (antibody, human IgG1, kappa, V domains shown, humanized 18B10, human IgG1 / kappa) VH: QVQLVQSGAEVKKPGASVKVSCKASGYSFTGYNMNWVKQAPGQGLEWIGNIDPYYGGTSYNQKFKGRVTLTIDKSTSTVYMELSSLRSEDTAVYYCARMYHGNAFDYWGQGTTVTVSS VL: DIVMTQSPDSLAVSLGERATINCKSSQSLLNSGNLKNYLTWYQQKPGQPPKLLIYWASTRKSGVPDRFSGSGSGTDFTLTISSLQAEDVAVYYCQNDYSYPLTFGGGTKVEIKR	1.39
18B10-HbLa (antibody, human IgG1, kappa, V domains shown, humanized 18B10, human IgG1 / kappa) VH: QVQLVQSGAEVKKPGASVKVSCKASGYSFTGYNMNWVRQAPGQGLEWMGNIDPYYGGTSYNQKFKGRVTLTIDKSTSTVYMELSSLRSEDTAVYYCARMYHGNAFDYWGQGTTVTVSS VL: DIVMTQSPDSLAVSLGERATINCKSSQSLLNSGNLKNYLTWYQQKPGQPPKLLIYWASTRKSGVPDRFSGSGSGTDFTLTISSLQAEDVAVYYCQNDYSYPLTFGGGTKVEIKR	1.31
18B10-HcLb (antibody, human IgG1, kappa, V domains shown, humanized 18B10, human IgG1 / kappa) VH: QVQLVQSGAEVKKPGASVKVSCKASGYSFTGYNMNWVKQAPGQGLEWIGNIDPYYGGTSYNQKFKGRVTLTIDKSTSTVYMELSSLRSEDTAVYYCARMYHGNAFDYWGQGTTVTVSS VL: DIVMTQSPDSLAVSLGERATMNCKSSQSLLNSGNLKNYLTWYQQKPGQPPKLLIYWASTRKSGVPDRFTGSGSGTDFTLTISSLQAEDVAVYYCQNDYSYPLTFGGGTKVEIKR	1.22

## Input Suppose we examine the binder 18B10-HbLb (antibody, human IgG1, kappa, V domains shown, humanized 18B10, human IgG1 / kappa) VH: QVQLVQSGAEVKKPGASVKVSCKASGYSFTGYNMNWVRQAPGQGLEWMGNIDPYYGGTSYNQKFKGRVTLTIDKSTSTVYMELSSLRSEDTAVYYCARMYHGNAFDYWGQGTTVTVSS VL: DIVMTQSPDSLAVSLGERATMNCKSSQSLLNSGNLKNYLTWYQQKPGQPPKLLIYWASTRKSGVPDRFTGSGSGTDFTLTISSLQAEDVAVYYCQNDYSYPLTFGGGTKVEIKR ; what EC50 value has been reported?
## Output 1.2
